The measured values listed here are drawn from ChEMBL document CHEMBL1158394.

Tested on: Vero
EXPERIMENT_DESCRIPTION: Cytotoxicity against african green monkey Vero cells after 48 hrs by MTT assay
Format: cell-based
CONDITION_CONTEXT: Chlorocebus sabaeus
Each entry below lists one item and its recorded IC50 value.

| SMILES_STR | SYSTEM_NAME | IC50 |
| --- | --- | --- |
| Cc1c2c(c3cc(-c4ccncc4)oc3c1C)CCC(C)(C)O2 | Vero | 5.1 µg/mL |
| Cc1c(-c2ccncc2)oc2ccc3c(c12)C=CC(C)(C)O3 | Vero | 12.8 µg/mL |
| Cc1c2c(c3cc(CCc4cccnc4)oc3c1C)CCC(C)(C)O2 | Vero | 7.3 µg/mL |
| Cc1c2c(c3cc(-c4ccc(NCCCN(C)C)nc4)oc3c1C)CCC(C)(C)O2 | Vero | 1.6 µg/mL |
| Cc1c2c(c3cc(Cc4cccnc4)oc3c1C)CCC(C)(C)O2 | Vero | 6.4 µg/mL |
| Cc1c2c(c3cc(-c4cccs4)oc3c1C)CCC(C)(C)O2 | Vero | > 100 µg/mL |
| Cc1c2c(c3cc(Cc4ccc(Cl)cc4)oc3c1C)CCC(C)(C)O2 | Vero | > 100 µg/mL |
| CC1(C)CCc2c(ccc3oc(-c4ccncc4)c(CCCO)c23)O1 | Vero | > 25 µg/mL |
| Cc1c2c(c3cc(-c4ccc[n+]([O-])c4)oc3c1C)CCC(C)(C)O2 | Vero | 5.6 µg/mL |
| NNC(=O)c1ccncc1 | Vero | > 500 µg/mL |

Qu. Please look at this compound and report its IC50: CC1(C)CCc2c(ccc3oc4ccccc4c23)O1
Ans. 100 µg/mL

Qu. Please look at this compound and report its IC50: CC(=O)OCCCc1c(-c2ccncc2)oc2ccc3c(c12)CCC(C)(C)O3
Ans. 14.9 µg/mL

Qu. Please look at this compound and report its IC50: COC(=N)c1ccc(-c2cc3c4c(c(C)c(C)c3o2)OC(C)(C)CC4)cn1
Ans. 3.6 µg/mL

Qu. Please look at this compound and report its IC50: CC1(C)C=Cc2c(ccc3oc(-c4ccncc4)cc23)O1
Ans. 8.7 µg/mL

Qu. Please look at this compound and report its IC50: Cc1c2c(c3cc(/C=C/c4cccnc4)oc3c1C)CCC(C)(C)O2
Ans. > 100 µg/mL

Qu. Please look at this compound and report its IC50: CC1(C)CCc2c(ccc3oc(-c4cccnc4)c(CCCO)c23)O1
Ans. > 25 µg/mL

Qu. Please look at this compound and report its IC50: CC(=O)OCCCc1c(-c2cccnc2)oc2ccc3c(c12)CCC(C)(C)O3
Ans. 17.5 µg/mL
